# Target or system: PI3Kdelta (Homo sapiens (Human), UniProt O00329)
# Sequence (O00329 whole entry, canonical isoform): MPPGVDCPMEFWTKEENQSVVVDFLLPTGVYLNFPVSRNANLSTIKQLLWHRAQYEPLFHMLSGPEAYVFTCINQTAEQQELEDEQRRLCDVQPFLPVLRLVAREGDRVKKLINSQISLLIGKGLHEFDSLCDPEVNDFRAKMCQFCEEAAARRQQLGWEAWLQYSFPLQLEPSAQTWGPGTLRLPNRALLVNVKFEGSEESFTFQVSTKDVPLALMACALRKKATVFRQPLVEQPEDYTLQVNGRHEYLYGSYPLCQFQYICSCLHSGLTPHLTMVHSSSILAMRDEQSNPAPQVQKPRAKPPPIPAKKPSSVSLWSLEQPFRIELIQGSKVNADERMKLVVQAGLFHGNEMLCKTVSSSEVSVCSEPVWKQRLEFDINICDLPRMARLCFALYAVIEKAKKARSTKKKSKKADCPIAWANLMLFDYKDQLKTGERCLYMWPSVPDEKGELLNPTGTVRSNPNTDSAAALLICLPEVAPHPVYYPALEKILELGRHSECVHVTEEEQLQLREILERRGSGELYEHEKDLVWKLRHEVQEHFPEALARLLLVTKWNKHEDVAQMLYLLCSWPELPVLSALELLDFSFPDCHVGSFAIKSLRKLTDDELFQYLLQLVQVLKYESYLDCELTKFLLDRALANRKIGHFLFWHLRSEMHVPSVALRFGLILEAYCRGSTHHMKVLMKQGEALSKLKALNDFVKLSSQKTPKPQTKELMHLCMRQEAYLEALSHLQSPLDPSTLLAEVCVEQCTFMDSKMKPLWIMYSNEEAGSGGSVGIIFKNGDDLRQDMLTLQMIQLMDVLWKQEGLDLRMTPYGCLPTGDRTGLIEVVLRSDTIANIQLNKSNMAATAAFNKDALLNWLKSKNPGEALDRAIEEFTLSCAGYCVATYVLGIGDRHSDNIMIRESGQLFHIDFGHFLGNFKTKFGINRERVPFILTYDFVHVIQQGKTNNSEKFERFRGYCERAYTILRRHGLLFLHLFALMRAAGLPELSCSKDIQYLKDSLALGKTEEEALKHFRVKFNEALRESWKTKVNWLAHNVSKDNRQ
# Sequence (P27986 whole entry partner, canonical isoform): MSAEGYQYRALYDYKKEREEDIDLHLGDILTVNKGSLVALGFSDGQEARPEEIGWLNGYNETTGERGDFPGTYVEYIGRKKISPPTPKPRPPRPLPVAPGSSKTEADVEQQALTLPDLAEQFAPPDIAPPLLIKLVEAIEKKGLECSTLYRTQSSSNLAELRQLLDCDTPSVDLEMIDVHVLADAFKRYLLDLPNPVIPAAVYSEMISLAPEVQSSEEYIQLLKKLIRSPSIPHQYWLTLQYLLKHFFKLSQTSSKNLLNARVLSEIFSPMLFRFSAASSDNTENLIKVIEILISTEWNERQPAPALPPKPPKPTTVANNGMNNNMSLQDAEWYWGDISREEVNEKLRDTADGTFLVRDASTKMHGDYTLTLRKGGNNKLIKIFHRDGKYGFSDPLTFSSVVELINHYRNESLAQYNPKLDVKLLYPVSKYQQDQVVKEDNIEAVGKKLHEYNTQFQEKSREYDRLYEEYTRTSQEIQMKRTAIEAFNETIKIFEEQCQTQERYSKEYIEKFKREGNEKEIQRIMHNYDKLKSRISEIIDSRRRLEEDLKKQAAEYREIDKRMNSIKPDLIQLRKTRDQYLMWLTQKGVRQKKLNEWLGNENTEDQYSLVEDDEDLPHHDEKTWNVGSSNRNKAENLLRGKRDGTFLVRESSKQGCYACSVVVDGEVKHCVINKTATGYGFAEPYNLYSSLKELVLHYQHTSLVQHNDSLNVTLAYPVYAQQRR
# Assay notes: HTRF PI3K biochemical assay, delta isoform
# Test context: 0.3 nM enzyme, 100 uM ATP, 50 uM PIP2; form screened (neutral or TFA salt)
Quick rule for you: IC50 under 6 nM gets satisfied, anything else gets not satisfied.

INSERT INTO measurements (molecule, target_or_system, class) VALUES
  ('CCn1c(-c2cnc(C)nc2)nc2c(-c3ccc4c(c3)C(C)(C3CCOCC3)C(=O)N4)ncnc21 (single isomer, unassigned) [Compound 1-34]', 'PI3Kdelta (Homo sapiens (Human), UniProt O00329)', 'not satisfied'),
  ('CCN1CCCC12C(=O)Nc1ccc(-c3ncnc4c3nc(-c3cnc(C)nc3)n4C)cc12 (single isomer, unassigned) [Compound 3-29]', 'PI3Kdelta (Homo sapiens (Human), UniProt O00329)', 'not satisfied'),
  ('CCn1c(-c2cnc(C)nc2)nc2c(-c3ccc4c(c3)C(C)(N3CC5(CCO5)C3)C(=O)N4)ncnc21 (single isomer, unassigned) [Compound 2-8]', 'PI3Kdelta (Homo sapiens (Human), UniProt O00329)', 'not satisfied'),
  ('CCn1c(-c2cnc(C)nc2)nc2c(-c3ccc4c(c3)C(C)(OCC3CC3)C(=O)N4)ncnc21 (single isomer, unassigned) [Compound 2-57]', 'PI3Kdelta (Homo sapiens (Human), UniProt O00329)', 'not satisfied'),
  ('CCn1c(-c2cnc(C)nc2)nc2c(-c3ccc4c(c3)C3(CCCN3C(=O)C3CC3)C(=O)N4C(C)C)ncnc21 (single isomer, unassigned) [Compound 3-10]', 'PI3Kdelta (Homo sapiens (Human), UniProt O00329)', 'satisfied');
